# Experimental system: Ferrochelatase, mitochondrial (Homo sapiens)
# Test method notes: FECH heme synthesis enzyme blockers – biochemical, purified FECH, Ni-mesoporphyrin absorbance, primary screen (AID 1671448)
# Settings: Ni-mesoporphyrin absorbance 550 nm, screened at 10 µM (by protocol)
The campaign covered roughly 20,000 compounds. About 660 (3.3%) were called active.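 How the source made its calls: active means enzyme reaction rate more than 3 SD below the solvent-only control wells on the same plate; inactive means the rest.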 For the sample, actives were picked, then their nearest neighbours and some compounds at random.
Please state which outcome applies, choosing from active, inactive

These recorded examples may help you get a feel for the data.
{"Molecule": "Cc1ccc(-c2c(-c3ccccc3)ncn2CCN2CCCC2=O)c(F)c1", "Experimental system": "Ferrochelatase, mitochondrial (Homo sapiens)", "Discrete label": "inactive"}
{"Molecule": "Cc1cccc(CN2CCCN(CC(=O)Nc3ccc(Cl)cc3)S2(=O)=O)c1", "Experimental system": "Ferrochelatase, mitochondrial (Homo sapiens)", "Discrete label": "inactive"}
{"Molecule": "COC(=O)c1ccc(NC(=O)CN2CCN(Cc3ccc(C)cc3)S2(=O)=O)cc1", "Experimental system": "Ferrochelatase, mitochondrial (Homo sapiens)", "Discrete label": "inactive"}
{"Molecule": "Cc1ccc(OCC(=O)Nc2cc(C)nn2-c2ncnc3c2cnn3-c2cccc(C)c2C)cc1", "Experimental system": "Ferrochelatase, mitochondrial (Homo sapiens)", "Discrete label": "inactive"}
{"Molecule": "CCOC(=O)c1cccc(Nc2cc(-c3ccc(C)cc3)nc(C)n2)c1", "Experimental system": "Ferrochelatase, mitochondrial (Homo sapiens)", "Discrete label": "inactive"}
{"Molecule": "O=C(c1ccncc1)N1CC[C@@H](c2ccc3ccccc3c2)[C@H](O)C1", "Experimental system": "Ferrochelatase, mitochondrial (Homo sapiens)", "Discrete label": "inactive"}
{"Molecule": "O=C(Nc1nc2n(n1)C(c1ccccc1Cl)C=C(c1ccccc1)N2)c1ccccc1F (stereo not drawn)", "Experimental system": "Ferrochelatase, mitochondrial (Homo sapiens)", "Discrete label": "active"}

Kindly review the next molecule as well.
Tell me the recorded outcome of this test for CC(Cc1ccc2c(c1)OCO2)CN1CCC(NS(C)(=O)=O)CC1 (stereo not drawn) . inactive
